ASSAYED TARGET: human estrogen receptor (hER-α) (Homo sapiens, UniProt P03372)
Sequence (P03372 1-595): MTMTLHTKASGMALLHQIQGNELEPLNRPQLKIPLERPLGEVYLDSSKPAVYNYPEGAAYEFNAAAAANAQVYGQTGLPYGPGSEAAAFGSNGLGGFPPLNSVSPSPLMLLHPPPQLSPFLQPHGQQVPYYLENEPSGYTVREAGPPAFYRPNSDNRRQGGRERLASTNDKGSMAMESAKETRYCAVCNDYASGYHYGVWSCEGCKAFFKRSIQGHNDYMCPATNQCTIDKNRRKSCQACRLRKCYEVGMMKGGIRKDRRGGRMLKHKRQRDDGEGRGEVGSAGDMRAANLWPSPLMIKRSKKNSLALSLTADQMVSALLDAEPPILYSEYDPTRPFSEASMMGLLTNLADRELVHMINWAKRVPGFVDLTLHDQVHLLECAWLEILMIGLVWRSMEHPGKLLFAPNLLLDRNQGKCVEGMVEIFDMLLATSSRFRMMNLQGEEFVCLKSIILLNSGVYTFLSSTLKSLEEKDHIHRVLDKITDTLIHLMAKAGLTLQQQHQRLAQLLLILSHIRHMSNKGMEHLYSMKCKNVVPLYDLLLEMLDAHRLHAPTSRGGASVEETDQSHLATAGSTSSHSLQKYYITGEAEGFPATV
TEST NAME: Estrogen receptor binding, whole cell test procedure
EXPERIMENTAL CONDITIONS: Ki of 5B estimated
pKi: −log10 of the molar value.
REPORTED PROPERTY: pKi

[[record]]
test_smiles = "C[C@]12CCc3c(ccc4cc(O)ccc34)[C@@H]1CCC2=O"
assayed_target = "human estrogen receptor (hER-α) (Homo sapiens, UniProt P03372)"
reported_property = "pKi"
measured = 6.43


Measured values drawn from patent US6458778B1 for this set.
